Reference source for all entries: patent US20220265641A1

system: time to first ejaculation of male rats; assay: Time until first ejaculation in male rats, 5-HT1A-receptor antagonist in conjunction with serotonergic agent (Example 3); format: in vivo; conditions: antagonist in conjunction with Citalopram, Fluoxetine, Ifoxetine, Paroxetine or Zimelidine shortly before sexual activity, relative to the rat's own average without treatment
Binary call on Potential average increase in time to first ejaculation (%) with cut-off 80%: strictly below means YES, and equality or higher means NO.

Before answering, review these 5 worked examples.
molecule	group.label
c1ccc(C(c2ccccc2)N2CCN(CCCC3(c4ccccc4)OCCO3)CC2)cc1	YES
CSc1ccc2c(c1)C(N1CCN(C)CC1)Cc1ccccc1S2 (stereo not drawn) [Methiothepin]	NO
C=CCc1ccccc1OCC(O)CNC(C)C (stereo not drawn)	YES
O=C1c2ccccc2S(=O)(=O)N1CCCCN1CCN(c2cc(Cl)cc3c2OCCO3)CC1	NO
Cc1nc2n(c(=O)c1CCN1CCC(c3noc4cc(F)ccc34)CC1)CCCC2	NO

Does the reported Potential average increase in time to first ejaculation (%) of the following molecule sit strictly below 80%? CC(C)NCC(O)COc1cccc2ccccc12 (stereo not drawn)
NO

Threshold test, Potential average increase in time to first ejaculation (%) < 80%: OC(CNCC(O)C1CCc2cc(F)ccc2O1)C1CCc2cc(F)ccc2O1 (stereo not drawn)
NO

Potential average increase in time to first ejaculation (%) under 80%? Item: CC(C)NCC(O)COc1cccc2[nH]ccc12 (stereo not drawn)
YES
